- tested.target: T1, XIAP (UniProt P98170 1-497, limits assumed)
- T1 construct: construct not described
- T1 sequence (P98170 whole entry): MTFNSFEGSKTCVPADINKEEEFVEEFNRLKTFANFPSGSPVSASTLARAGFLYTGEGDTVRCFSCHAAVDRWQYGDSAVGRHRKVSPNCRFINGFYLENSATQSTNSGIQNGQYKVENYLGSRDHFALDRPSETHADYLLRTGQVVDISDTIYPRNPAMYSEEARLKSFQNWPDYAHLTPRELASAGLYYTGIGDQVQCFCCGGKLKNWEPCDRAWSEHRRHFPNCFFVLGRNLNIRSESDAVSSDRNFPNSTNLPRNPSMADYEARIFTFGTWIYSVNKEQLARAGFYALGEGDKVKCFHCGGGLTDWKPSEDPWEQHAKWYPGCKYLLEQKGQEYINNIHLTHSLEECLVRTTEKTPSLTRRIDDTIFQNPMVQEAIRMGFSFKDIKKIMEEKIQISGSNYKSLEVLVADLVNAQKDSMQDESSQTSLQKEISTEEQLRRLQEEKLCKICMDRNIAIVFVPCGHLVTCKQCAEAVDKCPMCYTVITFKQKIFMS
- test.method.notes: yeast two-hybrid
endpoint.name: binding result

GSGCGCFVRGRIVRIRCVILLLRVLRSAEIYES (peptide, not shown: large carriers, that construct is not described for linear peptides) [peptide number 15] | no binding
GPHSSAHDRIWLRVRGLRIILLVLRSAEIYES (peptide, not shown: large carriers, that construct is not described for linear peptides) [peptide number 16] | no binding
GAGLGRVIRLRIVVLRCIFLLFRVLRSAEIYES (peptide, not shown: large carriers, that construct is not described for linear peptides) [peptide number 65] | no binding
